- test target: recombinant Pseudomonas aeruginosa PcrV, full-length (PAO), His-tagged (Pseudomonas aeruginosa)
- assay overview: BLI
Rule: measured Kd below 0.4 nM gets class 1; anything equal to or greater than 0.4 nM gets class 0.

Some entries whose results are on file:
* 3G3 (antibody, V domains shown, also called optimized anti-PcrV mAb clone 3G3) VH: EVQLLESGGGLVQPGGSLRLSCTASGFTFSDYPMSWVRQAPGKGLDWVSGISESGGSTYDADSVKGRFSTSRDNSKSTLYLDMNSLRAEDTAIYYCAKGRFSASAGHFFRAVYGMDVWGQGTAVTVSS VL: DIQLTQSPSSLSASVGDRVTITCRASQGIRSYLAWYQQKPGKAPKLLIYAASTLQSGVPSRFSGSGSGTDFTLTISSLQPEDFATYYCQQLSSYPLSFGGGTKVEIK | class 1
* 5B3 (antibody, V domains shown, also called optimized anti-PcrV mAb clone 5B3) VH: EVQLLESGGGLVQPGGSLRLSCTASGFTFSDYPMSWVRQAPGKGLDWVSGISESGGSTNDADSVKGRFSTSRDNSKSTLYLDMNSLRAEDTAIYYCAKGRFSQDSYHFFRAVYGMDVWGQGTAVTVSS VL: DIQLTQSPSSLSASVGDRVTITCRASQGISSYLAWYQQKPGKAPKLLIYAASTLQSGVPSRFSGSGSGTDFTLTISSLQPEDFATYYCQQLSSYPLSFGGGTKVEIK | class 0
* 6A10 (antibody, V domains shown, also called optimized anti-PcrV mAb clone 6A10) VH: EVQLLESGGGLVQPGGSLRLSCTASGFTFSDNHMSWVRQAPGKGLDWVSGISESGGSTNYADSVKGRFSTSRDNSKSTLYLDMNSLRAEDTAIYYCAKGRFSTSSSHFFRAVYGMDVWGQGTAVTVSS VL: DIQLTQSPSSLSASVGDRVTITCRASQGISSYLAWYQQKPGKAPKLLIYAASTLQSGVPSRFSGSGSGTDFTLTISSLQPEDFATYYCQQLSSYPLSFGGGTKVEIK | class 1
* 4A10 (antibody, V domains shown, also called optimized anti-PcrV mAb clone 4A10) VH: EVQLLESGGGLVQPGGSLRLSCTASGFTFSSYPMSWVRQAPGKGLDWVSGISESGGSTNYADSVKGRFSTSRDNSKSTLYLDMNSLRAEDTAIYYCAKGRFSDASEHFFRAVYGMDVWGQGTAVTVSS VL: DIQLTQSPSSLSASVGDRVTITCRASQGISSYLAWYQQKPGKTPKLLIYAASTLQSGVPSRFSGSGSGTDFTLTISSLQPEDFATYYCQQLSSYPLTFGGGTKVEIK | class 0

A record lists 7C1 (antibody, V domains shown, also called optimized anti-PcrV mAb clone 7C1) VH: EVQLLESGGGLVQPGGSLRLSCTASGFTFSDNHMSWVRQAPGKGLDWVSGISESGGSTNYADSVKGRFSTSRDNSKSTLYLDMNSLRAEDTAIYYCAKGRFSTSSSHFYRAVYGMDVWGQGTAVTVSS VL: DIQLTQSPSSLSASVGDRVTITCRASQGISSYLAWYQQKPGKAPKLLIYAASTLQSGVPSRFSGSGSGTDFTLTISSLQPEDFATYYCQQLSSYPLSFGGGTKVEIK . Is its Kd below 0.4 nM?
class 1
